The values you see were collected from ChEMBL document CHEMBL4196062.

molecular target: Proteinase K (Engyodontium album, UniProt P06873); assay: Drug metabolism assessed as Tritirachium album proteinase K-mediated compound degradation by measuring half life at 100 uM measured up to 480 mins by HPLC method; assay type: ADME; conditions: parengyodontium album
Sequence (P06873 whole entry): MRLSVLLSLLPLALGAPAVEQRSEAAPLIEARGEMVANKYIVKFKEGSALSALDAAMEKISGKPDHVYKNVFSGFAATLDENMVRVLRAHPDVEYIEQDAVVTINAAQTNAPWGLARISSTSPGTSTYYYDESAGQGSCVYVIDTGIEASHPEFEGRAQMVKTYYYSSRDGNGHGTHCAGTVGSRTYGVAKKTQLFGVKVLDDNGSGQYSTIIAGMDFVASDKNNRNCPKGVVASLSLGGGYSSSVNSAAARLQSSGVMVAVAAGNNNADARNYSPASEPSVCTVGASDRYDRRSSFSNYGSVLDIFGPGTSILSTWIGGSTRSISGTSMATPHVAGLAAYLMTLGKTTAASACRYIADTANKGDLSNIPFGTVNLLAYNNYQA
Value type: half-life at 100 µM (h)
Your answer is read as h, so omit the unit and give the number.

1. CCCC[C@H](NC(=O)[C@H](CC(C)C)NC(=O)[C@H](CCCC)NC(=O)[C@H](CO)NC(=O)[C@@H](NC(=O)CNC(=O)[C@]1(C)CCCC=CCCC[C@@](C)(NC(=O)[C@H](CC(C)C)NC(=O)[C@@H]2CCCN2C(C)=O)C(=O)N[C@@H]([C@@H](C)CC)C(=O)N[C@@H](CCC(N)=O)C(=O)N[C@@H](CO)C(=O)N1)[C@@H](C)CC)C(N)=O (stereo in doubt; 2a): 6.97

Input line: For CCCC[C@@H](NC(=O)[C@H](CC(C)C)NC(=O)[C@@H](CCCC)NC(=O)[C@H](CO)NC(=O)[C@@H](NC(=O)CNC(=O)C1(C)CCCC=CCCC[C@@](C)(NC(=O)[C@@H](NC(=O)[C@H](CC(C)C)NC(=O)[C@@H]2CCCN2C(C)=O)[C@@H](C)CC)C(=O)N[C@@H](CCC(N)=O)C(=O)N[C@@H](CO)C(=O)N[C@@H](C(C)C)C(=O)N1)[C@@H](C)CC)C(N)=O (some centres not stated) , write its half-life at 100 µM.
Output line: 3.53
